Test system: B16F0 melanoma tumour
Test: Biodistribution in B16 melanoma bearing mice
Type: in vivo, C57BL/6J mice
Details: B16 melanoma bearing mice, 15 min

- compound: "CCN(CC)CCNC(=O)c1ccnc(F)c1 [[^18F]MEL8]"
  uptake GIT: "7.03 % ID/g"
- compound: "CCN(CC)CCNC(=O)c1cccnc1F [[^18F]MEL6]"
  uptake GIT: "7.8 % ID/g"
- compound: "CCCCN(C)CCCCNC(=O)c1ccc(F)nc1 [[^18F]MEL4]"
  uptake GIT: "8.23 % ID/g"
- compound: "CCN(CC)CCNC(=O)c1ccc(F)nc1 [[^18F]MEL2]"
  uptake GIT: "5.421 % ID/g"

---

System: B16F0 melanoma tumour
Assay: Biodistribution in B16 melanoma bearing mice
Assay type: in vivo, C57BL/6J mice
Conditions: B16F0 tumour, C57BL/6J mice, 24 h, mean ± S.D., n = 5
Each entry below carries its reported Organ distribution Stomach.

- compound: "O=C(c1cncc(I)c1)N1CCN(Cc2ccccc2)CC1 [[^123I]20]"
  target: "B16F0 melanoma tumour"
  Organ distribution Stomach, % ID/organ: 0.07
- compound: "CCN(CC)CCNC(=O)c1ccc(I)nc1 [[^123I]14]"
  target: "B16F0 melanoma tumour"
  Organ distribution Stomach, % ID/organ: 0.4
- compound: "CCCN(CCC)CCCCNC(=O)c1cncc(I)c1 [[^123I]17]"
  target: "B16F0 melanoma tumour"
  Organ distribution Stomach, % ID/organ: 0.17
- compound: "CCN(CC)CCNC(=O)c1cncc(I)c1 [[^123I]11]"
  target: "B16F0 melanoma tumour"
  Organ distribution Stomach, % ID/organ: 0.04

---

Tested on: B16F0 melanoma tumour
Experiment: Biodistribution in B16 melanoma bearing mice
Type: in vivo, C57BL/6J mice
Details: B16 melanoma bearing mice, 1 h

- compound: "CCN(CC)CCNC(=O)c1ccc(F)nc1 [[^18F]MEL2]"
  uptake GIT [% ID/g]: 2.102
- compound: "CCCCN(C)CCCCNC(=O)c1ccc(F)nc1 [[^18F]MEL4]"
  uptake GIT [% ID/g]: 5.78
- compound: "CCN(CC)CCNC(=O)c1cccnc1F [[^18F]MEL6]"
  uptake GIT [% ID/g]: 7.1
- compound: "CCN(CC)CCNC(=O)c1ccnc(F)c1 [[^18F]MEL8]"
  uptake GIT [% ID/g]: 2.85

---

Each entry below carries its reported uptake THYROID.
Tested on: B16F0 melanoma tumour
Experiment: Biodistribution in B16 melanoma bearing mice
Type: in vivo, C57BL/6J mice
Settings: B16 melanoma bearing mice, 15 min

- compound: "CCN(CC)CCNC(=O)c1cccnc1F [[^18F]MEL6]"
  measure unit: "% ID/g"
  uptake THYROID: 4.5
- compound: "CCN(CC)CCNC(=O)c1ccc(F)nc1 [[^18F]MEL2]"
  measure unit: "% ID/g"
  uptake THYROID: 5.515
- compound: "CCN(CC)CCNC(=O)c1ccnc(F)c1 [[^18F]MEL8]"
  measure unit: "% ID/g"
  uptake THYROID: 4.81
- compound: "CCCCN(C)CCCCNC(=O)c1ccc(F)nc1 [[^18F]MEL4]"
  measure unit: "% ID/g"
  uptake THYROID: 10.16

---

Each entry below carries its reported uptake EYES.
System: B16F0 melanoma tumour
Assay: Biodistribution in B16 melanoma bearing mice
Format: in vivo, C57BL/6J mice
Details: B16 melanoma bearing mice, 15 min
observation type: uptake EYES (% ID/g)

- molecule: "CCCCN(C)CCCCNC(=O)c1ccc(F)nc1 [[^18F]MEL4]"
  target: "B16F0 melanoma tumour"
  observation type: "uptake EYES"
  measure unit: "% ID/g"
  observed: 11.27
- molecule: "CCN(CC)CCNC(=O)c1ccc(F)nc1 [[^18F]MEL2]"
  target: "B16F0 melanoma tumour"
  observation type: "uptake EYES"
  measure unit: "% ID/g"
  observed: 14.678
- molecule: "CCN(CC)CCNC(=O)c1cccnc1F [[^18F]MEL6]"
  target: "B16F0 melanoma tumour"
  observation type: "uptake EYES"
  measure unit: "% ID/g"
  observed: 36.7
- molecule: "CCN(CC)CCNC(=O)c1ccnc(F)c1 [[^18F]MEL8]"
  target: "B16F0 melanoma tumour"
  observation type: "uptake EYES"
  measure unit: "% ID/g"
  observed: 17.25

Attribution: patent US20110178396A1
